Assay Target: soluble guanylate cyclase (Sus scrofa, UniProt A0A4X1U7N1+A0ACM8Q7I6)
Construct: endogenous in cells; host or cells: primary endothelial cells from pig aorta
Sequence (A0A4X1U7N1 1-619): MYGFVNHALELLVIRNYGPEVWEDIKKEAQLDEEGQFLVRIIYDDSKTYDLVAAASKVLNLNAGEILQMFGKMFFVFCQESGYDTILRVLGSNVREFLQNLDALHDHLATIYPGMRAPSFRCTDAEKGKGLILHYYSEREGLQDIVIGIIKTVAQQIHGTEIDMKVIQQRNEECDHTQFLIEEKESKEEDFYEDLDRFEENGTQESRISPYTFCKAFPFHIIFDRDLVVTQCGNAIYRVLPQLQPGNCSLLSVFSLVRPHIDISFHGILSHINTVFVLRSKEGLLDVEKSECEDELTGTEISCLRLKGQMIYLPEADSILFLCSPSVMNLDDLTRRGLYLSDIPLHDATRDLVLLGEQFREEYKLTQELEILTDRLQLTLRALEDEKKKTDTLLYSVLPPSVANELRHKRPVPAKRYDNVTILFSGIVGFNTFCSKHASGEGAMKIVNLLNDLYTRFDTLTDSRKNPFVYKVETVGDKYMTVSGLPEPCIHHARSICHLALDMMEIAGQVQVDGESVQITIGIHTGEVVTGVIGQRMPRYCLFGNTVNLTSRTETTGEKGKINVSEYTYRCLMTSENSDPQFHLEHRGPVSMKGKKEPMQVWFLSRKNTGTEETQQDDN
Sequence (A0ACM8Q7I6 1-688): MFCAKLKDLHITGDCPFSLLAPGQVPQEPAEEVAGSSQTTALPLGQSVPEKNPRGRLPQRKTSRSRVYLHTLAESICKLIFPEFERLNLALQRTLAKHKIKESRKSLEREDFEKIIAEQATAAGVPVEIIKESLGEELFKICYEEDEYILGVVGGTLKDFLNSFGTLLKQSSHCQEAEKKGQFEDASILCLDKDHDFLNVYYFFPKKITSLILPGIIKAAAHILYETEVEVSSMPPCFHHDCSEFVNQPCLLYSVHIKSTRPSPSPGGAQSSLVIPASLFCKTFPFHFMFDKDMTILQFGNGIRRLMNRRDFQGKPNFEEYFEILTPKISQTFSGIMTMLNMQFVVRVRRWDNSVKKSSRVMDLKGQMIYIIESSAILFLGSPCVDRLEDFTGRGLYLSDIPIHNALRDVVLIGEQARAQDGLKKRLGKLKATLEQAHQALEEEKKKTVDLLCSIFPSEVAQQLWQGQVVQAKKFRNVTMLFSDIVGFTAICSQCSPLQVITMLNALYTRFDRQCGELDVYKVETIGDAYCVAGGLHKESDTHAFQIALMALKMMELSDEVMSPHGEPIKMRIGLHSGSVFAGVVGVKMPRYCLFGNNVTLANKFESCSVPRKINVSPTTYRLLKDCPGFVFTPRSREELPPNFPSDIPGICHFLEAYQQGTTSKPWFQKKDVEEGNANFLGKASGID
Protocol Text: Stimulation of soluble guanylate cyclase in primary endothelial cells (intracellular cGMP, radioimmunological)
Assay type: cell-based
Stated Conditions: 10 min, test substance 1 μM, primary endothelial cells from pig aorta, NOSYNTH, stimulation buffer with or without NO donor (SNP 1 μM), read-out: % cGMP increase (NOSYNTH)
Parameter: activation at 1 µM (%)
Give just the numeric value; % need not be written.

Solved cases below.
Cc1ccc(-c2nn(Cc3ccccc3)c3ccccc23)o1	238
OCc1ccc(-c2nn(Cc3ccccc3)c3ccccc23)s1	14
OCc1ccc(-c2nn(Cc3ccc(F)cc3)c3ccccc23)o1	250

# input for lookup
Task: Field request: activation at 1 µM | item: `COc1cccc(Cn2nc(-c3ccc(CO)o3)c3ccccc32)c1`
Result: 72
